Molecular target: T1, recombinant cyno Tie2 extracellular domain (cynomolgus monkey, UniProt Q02763 23-748 (human entry))
T1 construct: also called Recombinant cyno Tie2 ECD; cy Tie2
T1 chain: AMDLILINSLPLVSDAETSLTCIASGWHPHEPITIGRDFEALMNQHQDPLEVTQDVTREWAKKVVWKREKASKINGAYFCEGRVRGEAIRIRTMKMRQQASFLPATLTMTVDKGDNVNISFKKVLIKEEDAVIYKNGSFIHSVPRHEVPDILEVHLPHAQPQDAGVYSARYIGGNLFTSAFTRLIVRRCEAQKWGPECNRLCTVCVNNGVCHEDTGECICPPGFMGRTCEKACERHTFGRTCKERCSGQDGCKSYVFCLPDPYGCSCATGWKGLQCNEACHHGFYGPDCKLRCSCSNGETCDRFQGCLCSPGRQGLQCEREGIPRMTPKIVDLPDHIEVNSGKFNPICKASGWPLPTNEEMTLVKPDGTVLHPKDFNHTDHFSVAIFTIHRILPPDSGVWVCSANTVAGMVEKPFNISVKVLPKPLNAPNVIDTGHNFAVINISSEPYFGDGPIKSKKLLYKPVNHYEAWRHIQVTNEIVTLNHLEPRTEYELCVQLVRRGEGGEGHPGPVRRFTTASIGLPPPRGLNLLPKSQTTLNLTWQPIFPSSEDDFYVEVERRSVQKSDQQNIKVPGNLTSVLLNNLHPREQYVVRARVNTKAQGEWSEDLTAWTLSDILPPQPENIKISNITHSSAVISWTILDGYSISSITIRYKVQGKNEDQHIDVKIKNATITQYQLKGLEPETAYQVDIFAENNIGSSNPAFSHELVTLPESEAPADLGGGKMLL
Experiment: SPR, IgG captured, 37C
readout_name: Normalized Binding Signal, 1500 nM
Lab note: jot the number down without any unit.

Param item = Tie2.1.M100cF (antibody, IgG1, V domains shown, hIgG1 in the SPR and binning assays) VH: EVQLVESGGGLVQPGGSLRLSCAASGFTFSNTDISWVRQAPGKGLEWVGRISPSDGNTYYADSVKGRFTISADTSKNTAYLQMNSLRAEDTAVYYCARRTRWASWAFDYWGQGTLVTVSS VL: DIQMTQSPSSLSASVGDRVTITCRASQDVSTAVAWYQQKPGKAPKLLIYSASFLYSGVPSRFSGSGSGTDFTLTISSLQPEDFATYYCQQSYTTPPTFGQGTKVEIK ; retrieve measured Normalized Binding Signal, 1500 nM.
0.42

Bench note: what Normalized Binding Signal, 1500 nM did Tie2.1.M100cL (antibody, IgG1, name in Kabat numbering, V domains shown, hIgG1) VH: EVQLVESGGGLVQPGGSLRLSCAASGFTFSNTDISWVRQAPGKGLEWVGRISPSDGNTYYADSVKGRFTISADTSKNTAYLQMNSLRAEDTAVYYCARRTRWASWALDYWGQGTLVTVSS VL: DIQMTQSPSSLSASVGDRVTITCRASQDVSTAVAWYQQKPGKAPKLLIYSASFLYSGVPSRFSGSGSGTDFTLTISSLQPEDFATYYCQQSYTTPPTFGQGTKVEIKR show?
0.4

# Normalized Binding Signal, 1500 nM lookup, item Tie2.1.M100cI (antibody, IgG1, name in Kabat numbering, V domains shown, hIgG1) VH: EVQLVESGGGLVQPGGSLRLSCAASGFTFSNTDISWVRQAPGKGLEWVGRISPSDGNTYYADSVKGRFTISADTSKNTAYLQMNSLRAEDTAVYYCARRTRWASWAIDYWGQGTLVTVSS VL: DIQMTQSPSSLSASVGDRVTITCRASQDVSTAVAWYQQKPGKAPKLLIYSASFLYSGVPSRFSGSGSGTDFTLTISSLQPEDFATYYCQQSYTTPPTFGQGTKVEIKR
0.12

Please give the measured Normalized Binding Signal, 1500 nM for this binder: Tie2.1.M100cY (antibody, IgG1, name in Kabat numbering, V domains shown, hIgG1) VH: EVQLVESGGGLVQPGGSLRLSCAASGFTFSNTDISWVRQAPGKGLEWVGRISPSDGNTYYADSVKGRFTISADTSKNTAYLQMNSLRAEDTAVYYCARRTRWASWAYDYWGQGTLVTVSS VL: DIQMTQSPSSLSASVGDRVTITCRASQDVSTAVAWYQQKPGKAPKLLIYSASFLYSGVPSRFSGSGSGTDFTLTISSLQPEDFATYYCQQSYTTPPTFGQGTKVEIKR
0.44
